- assay system: Beta Secretase enzyme (BACE) (Homo sapiens)
- Sequence (P56817 46-501): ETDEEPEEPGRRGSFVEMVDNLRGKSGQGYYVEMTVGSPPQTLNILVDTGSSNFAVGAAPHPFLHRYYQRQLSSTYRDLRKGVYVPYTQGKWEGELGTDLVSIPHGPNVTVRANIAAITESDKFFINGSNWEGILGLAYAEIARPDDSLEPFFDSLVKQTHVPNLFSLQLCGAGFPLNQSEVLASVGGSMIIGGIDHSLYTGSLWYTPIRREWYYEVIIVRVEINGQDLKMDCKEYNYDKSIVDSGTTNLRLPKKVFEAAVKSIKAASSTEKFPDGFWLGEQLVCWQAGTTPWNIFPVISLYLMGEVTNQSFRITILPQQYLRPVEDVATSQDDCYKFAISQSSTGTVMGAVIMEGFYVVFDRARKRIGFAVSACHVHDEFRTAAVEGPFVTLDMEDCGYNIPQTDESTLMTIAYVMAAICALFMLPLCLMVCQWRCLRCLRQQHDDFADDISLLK
- experiment summary: In vitro enzymatic BACE FRET (fluorescence resonance energy transfer) assay;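 note: fluorescence read after 1 h with 50 nM quenched peptide substrate spanning the BACE cleavage site, in pH 4.2 acetate buffer containing 10% DMSO and nonionic detergent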
- Assay type: biochemical
- measurement context: read-out: BACE1 FRET assay (IC50)
What pIC50 was measured for each of the following?
One number for each entry, as −log10 of the molar value.

[
  {
    "item smiles": "COCC(=O)N[C@@H](Cc1ccccc1)[C@H](O)CN[C@H]1CC2(CCC2)Oc2ccc(C[C@H](C)F)cc21",
    "pIC50": 6.99
  },
  {
    "item smiles": "CC(=O)N[C@@H](Cc1ccc(F)c(-c2nccs2)c1)[C@H](O)CN[C@H]1CC2(CCC2)Oc2ccc(CC(C)(C)C)cc21",
    "pIC50": 8.22
  },
  {
    "item smiles": "CC(=O)N[C@@H](Cc1cccc(C#N)c1)[C@H](O)CN[C@H]1CC2(CCC2)Oc2c(-c3ccncc3)cc(CC(C)(C)C)cc21",
    "pIC50": 8.00
  }
]

Hi team, please reply with pIC50 for each item in this list.
1. CO[C@H](C)C(=O)N[C@@H](Cc1ccc2c(c1)OCO2)[C@H](O)CN[C@H]1CC2(CCC2)Oc2ncc([C@H]3CC3(C)C)cc21
2. CC(=O)N[C@@H](Cc1cc2c(c(-c3ccncc3)c1)OCO2)[C@H](O)CN[C@H]1CC2(CCC2)Oc2ncc(CC(C)(C)C)cc21
3. CO[C@H](C)C(=O)N[C@@H](Cc1ccc2c(c1)OCO2)[C@H](O)CN[C@H]1CC2(CCC2)Oc2cnc(CC(C)C)cc21
4. CO[C@H](C)C(=O)N[C@@H](Cc1cc(F)cc(F)c1)[C@H](O)CN[C@H]1CC2(CCC2)Oc2c(-c3cncn3C)cc(CC(C)C)cc21
5. COCC(=O)N[C@@H](Cc1cc(F)cc(F)c1)[C@H](O)CN[C@H]1CC2(CCC2)Oc2c(-c3ccncc3)cc(CC(C)(C)F)cc21
6. COCC(=O)N[C@@H](Cc1cccc(C#N)c1)[C@H](O)CN[C@H]1CC2(CCC2)Oc2c(-c3ccncc3)cc(CC(C)(C)C)cc21
7. COCC(=O)N[C@@H](Cc1ccc(F)cc1)[C@H](O)CN[C@H]1CC2(CCC2)Oc2c1cc(CC(C)(C)C)nc2Nc1ccccc1
8. CC(=O)N[C@@H](Cc1cc(F)cc(F)c1)[C@H](O)CN[C@H]1CC2(CCC2)Oc2c(-c3ccncc3)cc(Cl)cc21

## Result
[6.45, 6.36, 6.91, 7.59, 7.85, 8.10, 6.68, 7.62]

Hi team, please reply with pIC50 for each item in this list.
1. COCC(=O)N[C@@H](Cc1cccc(F)c1)[C@H](O)CN[C@H]1CC2(CCC2)Oc2c1cc(CC(C)(C)F)cc2-n1ccnc1
2. CO[C@H](C)C(=O)N[C@@H](Cc1ccccc1)[C@H](O)CN[C@H]1CC2(CCC2)Oc2c(-c3ccncc3)cc(CC(C)C)cc21
3. CC(=O)N[C@@H](Cc1cc(F)cc(-c2ccco2)c1)[C@H](O)CN[C@H]1CC2(CCC2)Oc2ccc(CC(C)(C)C)cc21
4. CC(=O)N[C@@H](Cc1cc(F)cc(F)c1)[C@H](O)CN[C@H]1CC2(CCC2)Oc2c1cc(CC(C)(C)C)nc2Nc1ccccc1
5. CC(=O)N[C@@H](Cc1cc(F)cc(-c2cccnc2)c1)[C@H](O)CN[C@H]1CC2(CCC2)Oc2ccc(CC(C)(C)C)cc21
6. CC(C)Cc1cnc2c(c1)[C@@H](NC[C@@H](O)[C@H](Cc1ccc3c(c1)OCO3)NC(=O)[C@@H](C)F)CC1(CCC1)O2
7. CC(=O)N[C@@H](Cc1cc(F)cc(F)c1)[C@H](O)CN[C@H]1CC2(CCC2)Oc2ncc(C(F)(F)C(C)(C)C)cc21

## Result
[7.57, 7.74, 8.40, 7.64, 8.15, 7.52, 8.15]
